# study-system: MAGE-A1 target antigen peptide … presented by HLA-A*02:01 on cells (human)
# assay-info: cell-based or functional assay
# Parameters: unit not given beside the values
reported-endpoint: EC50 Enhancement Factor

* ht27M1002 (TCR, V domains shown) Valpha: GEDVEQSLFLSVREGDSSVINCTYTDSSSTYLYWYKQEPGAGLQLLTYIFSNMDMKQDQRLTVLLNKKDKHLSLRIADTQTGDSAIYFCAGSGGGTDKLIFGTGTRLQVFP Vbeta: GAVVSQHPSWVICKSGTSVKIECRSLDFQATTMFWYRQFPKQSLMLMATSNEGSKATYEQGVEKDKFLINHASLTLSTLTVTSAHPEDSSFYICSAREPGGGPYEQYFGPGTRLTVT | 12
* ht27M1378 (TCR, V domains shown) Valpha: GEDVEQSLFLSVREGDSSVINCTYADYLSTYLYWYKQEPGAGLQLLTYIFSNMDMKQDQRLTVLLNKKDKHLSLRIADTQTGDSAIYFCAGSGGGTDKLIFGTGTRLQVFP Vbeta: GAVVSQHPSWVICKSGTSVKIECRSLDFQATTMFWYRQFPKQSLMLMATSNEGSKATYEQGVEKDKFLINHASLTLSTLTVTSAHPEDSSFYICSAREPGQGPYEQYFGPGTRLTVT | 225
* ht27M1166 (TCR, V domains shown) Valpha: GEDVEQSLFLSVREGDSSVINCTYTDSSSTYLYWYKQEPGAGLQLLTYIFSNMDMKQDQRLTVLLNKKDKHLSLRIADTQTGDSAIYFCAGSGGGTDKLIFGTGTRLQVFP Vbeta: GAVVSQHPSWVICKSGTSVKIECRSLDFQATTMFWYRQFPKQSLMLMATSNEGSKATYEQGVEKDKFLINHASLTLSTLTVTSAHPEDSSFYICQAREPGQGPYEQYFGPGTRLTVT | 47
* ht27M1362 (TCR, V domains shown) Valpha: GEDVEQSLFLSVREGDSSVINCTYTDSSSTYLYWYKQEPGAGLQLLTYIFIFQYMKQDQRLTVLLNKKDKHLSLRIADTQTGDSAIYFCAGSGGGTDKLIFGTGTRLQVFP Vbeta: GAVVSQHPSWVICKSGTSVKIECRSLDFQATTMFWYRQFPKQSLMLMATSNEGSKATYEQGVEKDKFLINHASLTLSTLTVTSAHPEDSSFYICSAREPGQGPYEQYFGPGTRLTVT | 419
* ht27M1245 (TCR, V domains shown) Valpha: GEDVEQSLFLSVREGDSSVINCTYTDSSQTYLYWYKQEPGAGLQLLTYIFSNMDMKQDQRLTVLLNKKDKHLSLRIADTQTGDSAIYFCAGSGGGTDKLIFGTGTRLQVFP Vbeta: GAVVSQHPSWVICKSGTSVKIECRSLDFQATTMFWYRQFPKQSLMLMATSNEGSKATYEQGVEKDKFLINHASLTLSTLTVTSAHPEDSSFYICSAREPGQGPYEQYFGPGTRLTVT | 30
